Cited source: ChEMBL document CHEMBL1149822

- System: Rattus norvegicus
- Measurement protocol: Antiinflammatory activity against carrageenan-induced paw oedema in albino rat at 50 mg/kg, po relative to control
- Type: functional

Smiles text | inhibition in vivo at 50 mg/kg, %
Cc1ccc(C2=Nn3c(nnc3-c3cc(Cl)cc(Cl)c3Cl)SC2)cc1 | 19.4
Clc1cc(Cl)c(Cl)c(-c2nnc3sc(-c4ccncc4Br)nn23)c1 | 19.4
Cc1ccc(-c2nn3c(-c4cc(Cl)cc(Cl)c4Cl)nnc3s2)cc1 | 22.6
Clc1cc(Cl)c(Cl)c(-c2nnc3sc(-c4cccc5ncccc45)nn23)c1 | 9.67
COc1ccc(-c2nn3c(-c4cc(Cl)cc(Cl)c4Cl)nnc3s2)cc1 | 25.8
CSc1ccc(C2=Nn3c(nnc3-c3cc(Cl)cc(Cl)c3Cl)SC2)cc1 | 9.67
